- Tested on: OVCAR-8 ovarian
- Test description: NCI-60 one-dose screen, 48 h
- Assay context: 10 µM unless noted
This is part of a sample that, as a whole, favours compounds with a hit. Of some 83,000 tested, about 20% had one in any assay. Active and inactive are the calls of the source. How the source made its calls: active means growth percent below 10; inactive means the rest.
Output constraint: value belongs to yes (active), no (inactive)

Answer briefly: the call reported for COc1ccc(-c2nnc3n(C)c(=O)c4ccccc4n23)cc1O in this assay.
no

And the next one, N#Cc1cc(-c2ccnc(Nc3ccc(NC(=O)CCl)cc3)n2)ccc1N1CCCC1 ?
yes

Follow-up item: COc1cc(/C=C/C(=O)c2ccc(NC(=O)CSc3nnc(-c4cc(-c5ccccc5)nc5ccccc45)n3-c3ccccc3)cc2)cc(OC)c1OC
no

Now the compound Cc1ccc(C(=O)Nc2ccc(CN3CCN(C)CC3)c(C(F)(F)F)c2)cc1C#Cc1cnc(N)cc1C#N
yes

And the next one, Cn1cc(-c2nonc2-c2cn(C)c3ccc(Br)cc23)c2ccccc21 ?
no

Next compound: COc1nc2ccc(C)cc2cc1/C=[N+](\[O-])c1ccccc1
no

// repeat for O=C1c2cccc3cccc(c23)C(=O)N1N1C(=O)c2cccc3c(N4CCNCC4)ccc(c23)C1=O and report
no

Try COc1ccc(N2CCN(S(=O)(=O)c3oc(-c4ccccc4)nc3C#N)CC2)cc1 next.
no

Please answer likewise for N=C(N)c1ccc(-c2ccc(-c3ccc(Cl)c(Cl)c3)s2)cc1
yes

And then O=[N+]([O-])c1cc(C(F)(F)F)ccc1Sc1ccc(C(F)(F)F)cc1[N+](=O)[O-] , what is it?
no

Repeat for the following compound: COc1ccc(-c2cc(-c3cccnc3)nc3sc4c(Cl)nnnc4c23)cc1OC
no

Try this compound too: CC1=C2[C@@H](CC1)[C@]1(C)O[C@@](C(C)C)(C[C@H]1OC(=O)CO)[C@H]2OC(=O)C1CC1c1ccccc1 (stereo partly drawn)
no

Further, for CCCCCCCCn1ccc2cc(NC(=O)CN3CCN(c4nc(C)cc(N5CCCCC5)n4)CC3)ccc21 ?
no

Same read-out for Nc1nc(N)c2c(n1)NC(c1cccc(Nc3ccnc4cc(C(F)(F)F)ccc34)c1)CC(c1ccc(F)cc1)=N2 (stereo not drawn) ?
no

Next: Cn1c(=O)c2c(nc(Nc3cc(=O)[nH]c(=O)[nH]3)n2Cc2ccccc2)n(C)c1=O
yes

Proceed to CC[C@]12CN3CCc4c([nH]c5ccccc45)[C@@](C(=O)OC)(c4cc5c(cc4OC)N(C)[C@H]4[C@@](O)(C(=O)OC)[C@H](OC(C)=O)[C@]6(CC)C=CCN7CC[C@]54[C@@H]76)CC(C3)[C@H]1O2 (stereo partly drawn)
yes

Now give it for CC1(Cc2ccccc2)CC2=C(C(=O)O1)C(c1ccccc1)NC(=O)N2 (stereo not drawn) too.
no

// query: COc1ccc(C(=O)N/N=C/c2ccc(O)cc2O)cc1Nc1ccnc(C(F)(F)F)c1
no

Taken from PubChem BioAssay (NCI).
